Give measured IC50 for each item. Keep answers brief.
Test system: H460
Experiment: IC50 studies, monolayer cell culture assay (CellTiter-Glo cell viability, 72 hours)
Format: cell-based
Settings: H460, lung, Test III, read-out: IC50 Test (III) Avg
Protocol: Cancer cell lines listed in Table 1, were subjected for testing anti-cancer potency or the half maximal inhibitory concentration (IC50) of tamibarotene molecular complexes. […] Then 90 μl of the 100 μl testing reagent were transferred into an opaque-walled 96-well plate for the CTG luminescence reading on a plate reader (SynergyH4 Hybrid Reader, Biotek, USA). The luminescence intensity of each treatment was positively correlated with the number of cells survived during the treatments. […]
Answer with a number only, understood to be in µM.

Kindly note: H460, CC1(C)CCC(C)(C)c2cc(NC(=O)c3ccc(C(=O)O)cc3)ccc21.O=C(O)c1ccc(-c2ccccc2)cc1 [TAM-biphenyl-4-carboxylic acid] , IC50 value reported: 55.2

Kindly note: H460, CC1(C)CCC(C)(C)c2cc(NC(=O)c3ccc(C(=O)O)cc3)ccc21.O=C(O)c1cc(O)c(O)c(O)c1 [TAM-gallic acid] , IC50 value reported: 41.3

Kindly note: H460, CC1(C)CCC(C)(C)c2cc(NC(=O)c3ccc(C(=O)O)cc3)ccc21.NC(=O)c1cccnc1 [TAM-nicotinamide] , IC50 value reported: 50.3

Kindly note: H460, CC1(C)CCC(C)(C)c2cc(NC(=O)c3ccc(C(=O)O)cc3)ccc21.O=C(O)c1ccccc1-c1ccccc1C(=O)O [TAM-diphenic acid] , IC50 value reported: 32.3
